Give measured competition value for each item. Keep answers brief.
target: stabilized BG505 SOSIP construct MD39 (HIV isolate BG505); assay: competition ELISA on MD39 vs PGT151
One number for each entry.

binder	competition value
NC-Cow5 (antibody) VH: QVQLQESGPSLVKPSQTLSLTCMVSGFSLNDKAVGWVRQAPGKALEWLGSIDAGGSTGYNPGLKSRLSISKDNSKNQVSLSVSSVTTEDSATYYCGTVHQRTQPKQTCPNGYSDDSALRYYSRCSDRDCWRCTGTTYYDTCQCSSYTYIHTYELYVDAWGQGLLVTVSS VL: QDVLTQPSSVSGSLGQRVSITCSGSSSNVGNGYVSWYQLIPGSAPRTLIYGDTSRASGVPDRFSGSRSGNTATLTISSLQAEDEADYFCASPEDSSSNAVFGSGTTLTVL	2

// each listed binder needs a value for competition value
1. NC-Cow7 (antibody) VH: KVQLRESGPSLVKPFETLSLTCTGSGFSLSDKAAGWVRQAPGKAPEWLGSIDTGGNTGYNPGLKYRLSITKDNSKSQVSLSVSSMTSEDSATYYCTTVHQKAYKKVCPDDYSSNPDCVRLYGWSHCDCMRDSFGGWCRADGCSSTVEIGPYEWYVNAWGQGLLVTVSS VL: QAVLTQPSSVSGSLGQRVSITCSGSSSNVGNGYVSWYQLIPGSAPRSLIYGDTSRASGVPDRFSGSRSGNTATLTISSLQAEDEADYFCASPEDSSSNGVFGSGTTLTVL
2. NC-Cow2 (antibody) VH: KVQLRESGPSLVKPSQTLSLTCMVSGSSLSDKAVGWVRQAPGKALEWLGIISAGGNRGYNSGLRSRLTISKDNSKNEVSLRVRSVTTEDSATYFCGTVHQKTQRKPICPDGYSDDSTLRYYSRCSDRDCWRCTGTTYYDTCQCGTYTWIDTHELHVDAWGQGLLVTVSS VL: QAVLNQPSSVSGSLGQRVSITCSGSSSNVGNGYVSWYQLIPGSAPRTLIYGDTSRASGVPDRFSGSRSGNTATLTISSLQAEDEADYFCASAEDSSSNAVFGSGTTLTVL
3. NC-Cow4 (antibody) VH: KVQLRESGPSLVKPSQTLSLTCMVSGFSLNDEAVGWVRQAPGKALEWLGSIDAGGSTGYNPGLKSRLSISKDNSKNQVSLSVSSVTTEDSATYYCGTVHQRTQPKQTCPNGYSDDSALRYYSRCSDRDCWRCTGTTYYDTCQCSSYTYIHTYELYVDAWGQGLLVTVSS VL: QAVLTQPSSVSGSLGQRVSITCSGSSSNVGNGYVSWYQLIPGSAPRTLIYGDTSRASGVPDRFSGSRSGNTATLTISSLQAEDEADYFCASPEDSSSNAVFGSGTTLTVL

A)
[20, 11, 20]
